Test system: Escherichia coli TOP10
Assay: shrunken log2 fold change of peptide-encoding DNA abundance (4.5 h post-induction vs induction); higher = less antimicrobial activity (less host growth inhibition)
Conditions: time post-induction: 4.5 h; library: site-saturation at positions 5, 18, 19, 20
Would you mind telling me the reported shrunken log2 fold change of each entry?
Lab note: record just the number, no unit beside it.

Asked: Dear colleague, I am looking for the recorded shrunken log2 fold change of the following sequence: RRIRHRPPRLPRPRPRPCGGPRP
Given back: -0.0282

Asked: Would you kindly share the measured shrunken log2 fold change for RRIRYRPPRLPRPRPRPLAPPRP ?
Given back: 0.107

Asked: Find the recorded shrunken log2 fold change belonging to RRIRRRPPRLPRPRPRPAYTPRP and report it.
Given back: -0.0735

Asked: Need shrunken log2 fold change of RRIRNRPPRLPRPRPRPRHWPRP , thanks.
Given back: 0.133

Asked: Given the sequence RRIRTRPPRLPRPRPRPDKCPRP , what is its reported shrunken log2 fold change?
Given back: -0.229

Asked: What value of shrunken log2 fold change has been recorded for this entry: RRIRKRPPRLPRPRPRPMGEPRP
Given back: -0.0199

Asked: # lookup: shrunken log2 fold change of RRIRDRPPRLPRPRPRPMLQPRP
Given back: 0.0454

Asked: Would you kindly share the measured shrunken log2 fold change for RRIRMRPPRLPRPRPRPVICPRP ?
Given back: 0.00711

====

Assignment: determine reported shrunken log2 fold change for the given sequences.
Tested on: Escherichia coli TOP10;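 note: peptides expressed intracellularly from a pBAD plasmid library in pooled LB shake-flask culture, induced with 0.3% L-arabinose, DNA abundance read by NGS, three biological replicates, DESeq2 with apeglm shrinkage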
Assay: shrunken log2 fold change of peptide-encoding DNA abundance (4.5 h post-induction vs induction); higher = less antimicrobial activity (less host growth inhibition)
Conditions: time post-induction: 4.5 h; library: site-saturation at positions 5, 18, 19, 20
Number only, please.

Asked: Form field: reported shrunken log2 fold change of RRIRRRPPRLPRPRPRPIRNPRP
Given back: 0.113

Asked: I'd like to know its shrunken log2 fold change. The sequence in question is RRIRWRPPRLPRPRPRPHPHPRP
Given back: -0.0616

Asked: Item RRIRFRPPRLPRPRPRPQEVPRP has what recorded shrunken log2 fold change?
Given back: 0.0758

Asked: For the sequence shown here, RRIRARPPRLPRPRPRPYDNPRP , give the reported shrunken log2 fold change.
Given back: -0.0875

Asked: What value of measured shrunken log2 fold change is listed for RRIRVRPPRLPRPRPRPGDSPRP ?
Given back: -0.0395

Asked: Consider the sequence RRIRCRPPRLPRPRPRPDLLPRP and give its measured shrunken log2 fold change.
Given back: -0.393

Asked: Suppose we examine the sequence RRIRKRPPRLPRPRPRPSMCPRP ; what shrunken log2 fold change value has been reported?
Given back: -0.472

Asked: State the recorded shrunken log2 fold change for this entry: RRIRVRPPRLPRPRPRPIVTPRP
Given back: -0.214

Asked: Query: shrunken log2 fold change; subject: RRIRKRPPRLPRPRPRPMKWPRP
Given back: -0.0374

Asked: Query: shrunken log2 fold change; subject: RRIRKRPPRLPRPRPRPKPDPRP
Given back: 0.861

Asked: Record request: shrunken log2 fold change value, item RRIRIRPPRLPRPRPRPDGIPRP
Given back: -0.0104

Asked: I would be grateful if you could share the reported shrunken log2 fold change for RRIRIRPPRLPRPRPRPNFIPRP .
Given back: -0.327

Asked: Returns the measured shrunken log2 fold change for the input sequence. Input: RRIRCRPPRLPRPRPRPRVWPRP
Given back: 0.747

Asked: Would you mind telling me what shrunken log2 fold change value was observed for RRIRERPPRLPRPRPRPMSTPRP ?
Given back: -0.516

Asked: Give its shrunken log2 fold change value. Item: RRIRSRPPRLPRPRPRPETWPRP
Given back: -0.0382
